Assay: Lipophilicity assessed as capacity factor logK of the compound by HPLC method
Format: physicochemical
Quick rule for you: log K under 1 gets Fulfilled, anything else gets Not fulfilled.

Below, 8 compounds whose answers are already recorded.
query_smiles=O=C(Nc1ccccc1Cl)c1ccc2cccc(O)c2n1 group=Fulfilled
query_smiles=O=C(Nc1ccc(C(F)(F)F)cc1)c1ccc2cccc(O)c2n1 group="Not fulfilled"
query_smiles=Cc1ccc(NC(=O)c2ccc3cccc(O)c3n2)cc1 group=Fulfilled
query_smiles=O=C(Nc1ccccc1Br)c1ccc2cccc(O)c2n1 group="Not fulfilled"
query_smiles=Cc1ccccc1NC(=O)c1ccc2cccc(O)c2n1 group=Fulfilled
query_smiles=O=C(Nc1cccc(Br)c1)c1ccc2cccc(O)c2n1 group="Not fulfilled"
query_smiles=O=C(Nc1ccccc1[N+](=O)[O-])c1ccc2cccc(O)c2n1 group="Not fulfilled"
query_smiles=O=C(Nc1ccc(Cl)cc1)c1ccc2cccc(O)c2n1 group="Not fulfilled"

Now for another entry.
### Prompt Determine whether this compound shows log K lower than 1 (ties excluded): O=C(Nc1cccc(Cl)c1)c1ccc2cccc(O)c2n1
### Response Not fulfilled

The origin of these recorded values is ChEMBL document CHEMBL3593232.
